System: MDCK cells
Experiment: Cytotoxicity to MDCK cells (compound toxicity control, MTT)
Conditions: dog
Measured IC50 at 3 day, listed per entry.

Compound: CC1(C)CC(O)CC(C)(CNc2ccc(C#N)c(Cl)c2)C1 (stereo not drawn)
IC50 at 3 day: 8.22 µM

Compound: CC1(C)CC(O)CC(C)(CNc2ccc(C#N)c(C(F)(F)F)c2)C1 (stereo not drawn)
IC50 at 3 day: 8.35 µM

Compound: CC1(C)CC(O)CC(C)(CNc2ccc(Cl)c(C#N)c2)C1 (stereo not drawn)
IC50 at 3 day: 7.99 µM

---

System: Influenza H1N1 virus
Assay: Viral cytopathic effect (CPE) assay
Type: cell-based, Influenza A (H1N1)
Conditions: Influenza A virus, H1N1, MDCK, 72 h, read-out: CPE_EC50
pEC50: −log10 of the molar value.
Measured pEC50, listed per entry.
Measured quantity: pEC50

Compound: CC1(C)CC(O)CC(C)(CNc2ccc(Cl)c(Cl)c2)C1 (stereo not drawn)
Measured quantity: pEC50
Numeric readout: 7.17
--
Compound: CC(=O)N(C(C)=O)C1CC(C)(C)CC(C)(C(=O)Nc2cccc(Cl)c2)C1 (stereo not drawn)
Measured quantity: pEC50
Numeric readout: 5.50
--
Compound: CC1(C)CC(O)CC(C)(C(=O)Nc2cc(Cl)cc(Cl)c2)C1 (stereo not drawn)
Measured quantity: pEC50
Numeric readout: 7.31
--
Compound: CC1(C)CC(O)CC(C)(C(=O)Nc2cc(F)cc(C(F)(F)F)c2)C1 (stereo not drawn)
Measured quantity: pEC50
Numeric readout: 7.27
--
Compound: CC(C)c1cccc(NCC2(C)CC(O)CC(C)(C)C2)c1 (stereo not drawn)
Measured quantity: pEC50
Numeric readout: 7.05
--
Compound: CC1(C)CC(O)CC(C)(CNc2cc(S(N)(=O)=O)ccn2)C1 (stereo not drawn)
Measured quantity: pEC50
Numeric readout: 6.01
--
Compound: CN(C)C1CC(C)(C)CC(C)(CNc2cc(F)cc(C(F)(F)F)c2)C1 (stereo not drawn)
Measured quantity: pEC50
Numeric readout: 5.77
--
Compound: CC1(C)CC(O)CC(C)(C(=O)Nc2cc(F)cc(Cl)c2)C1 (stereo not drawn)
Measured quantity: pEC50
Numeric readout: 7.26
--
Compound: Cc1cc(Cl)cc(NCC2(C)CC(O)CC(C)(C)C2)c1 (stereo not drawn)
Measured quantity: pEC50
Numeric readout: 7.60
